Taken from the RNAGym collection of RNA variant scans (doi:10.7554/elife.90254).

B1: OR4K15 (parent)
chain: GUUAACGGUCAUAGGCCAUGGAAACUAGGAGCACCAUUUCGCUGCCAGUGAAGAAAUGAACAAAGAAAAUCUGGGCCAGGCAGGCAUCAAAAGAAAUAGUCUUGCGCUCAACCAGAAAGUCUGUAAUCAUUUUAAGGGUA

- Variants of: B1
- Test Summary: self-cleavage, relative activity (ratio to wild type); higher = more cleavage; in vitro, sequencing; the parent is a self-cleaving ribozyme
Readings of self-cleavage for the listed variants

Past entries and their recorded results:
{"columns": ["Mutation Annotation", "self-cleavage"],
 "data": [
  ["U72A", 0.18],
  ["A11G", 0.77],
  ["U102C A140G", 2.39],
  ["C46A A118U", 0.26],
  ["A78C C109U", 0.19],
  ["U102C C109A", 0.3],
  ["G80A A129U", 0.02],
  ["A68G U122A", 0.93]
]}

Consider the variant shown here: C77U U100C What is its recorded self-cleavage? 2.13

Further, for A82G U124A ? 0.32

Further, for A52G U100G ? 1.16

Further, for U2C A66G ? 1.45

Further, for U57C U102C ? 1.38

Further, for A56G A92U ? 2.54

Further, for U70C C109A ? 0.16

Further, for A55G A95C ? 1.02

Further, for A27G A134G ? 1.86

Further, for "U19G" ? 1.18

Further, for A111G A135G ? 0.02

Further, for U57C U120A ? 2.01

Further, for U130C A134G ? 0.27

Further, for A86G C109U ? 0.22

Further, for A30G A89U ? 1.09
